# Test system: HeLa Kyoto
# Test Protocol: solubility change mitosis vs G1/S (difference of NP-40 vs SDS log2 ratios) (log2 ratio difference); higher = more soluble in mitosis
Measurement Name: solubility change mitosis (log2)
Give your answer as a number; write no unit.

[ask] Any idea what solubility change mitosis (log2) was measured for MARGQQKIQSQQKNAKKQAGQKKKQGHDQKAAAKAALIYTCTVCRTQMPDPKTFKQHFESKHPKTPLPPELADVQA [ZNF706] ?
[reply] 0.171

[ask] Input MAAPSGGVNCEEFAEFQELLKVMRTIDDRIVHELNTTVPTASFAGKIDASQTCKQLYESLMAAHASRDRVIKNCIAQTSAVVKNLREEREKNLDDLTLLKQLRKEQTKLKWMQSELNVEEVVNDRSWKVFNERCRIHFKPPKNE [CCDC58]
[reply] 0.251

# input for lookup
[ask] # lookup: solubility change mitosis (log2) of "SMARCA2"
[reply] -0.051

---

We begin with a simple list: items and their reported solubility change mitosis (log2).
# Test system: HeLa Kyoto;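 also: synchronized HeLa Kyoto cells (double thymidine block for G1/S, nocodazole release for mitosis), protein amounts in NP-40 versus SDS lysates quantified by mass spectrometry, three biological replicates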
# Test Protocol: solubility change mitosis vs G1/S (difference of NP-40 vs SDS log2 ratios) (log2 ratio difference); higher = more soluble in mitosis

[ask] What value of measured solubility change mitosis (log2) is listed for MSAAGLLAPAPAQAGAPPAPEYYPEEDEELESAEDDERSCRGRESDEDTEDASETDLAKHDEEDYVEMKEQMYQDKLASLKRQLQQLQEGTLQEYQKRMKKLDQQYKERIRNAELFLQLETEQVERNYIKEKKAAVKEFEDKKVELKENLIAELEEKKKMIENEKLTMELTGDSMEVKPIMTRKLRRRPNDPVPIPDKRRKPAPAQLNYLLTDEQIMEDLRTLNKLKSPKRPASPSSPEHLPATPAESPAQRFEARIEDGKLYYDKRWYHKSQAIYLESKDNQKLSCVISSVGANEIWVRKTSDSTKMRIYLGQLQRGLFVIRRRSAA [SUDS3] ?
[reply] 0.238

[ask] What do we get for MSGEENPASKPTPVQDVQGDGRWMSLHHRFVADSKDKEPEVVFIGDSLVQLMHQCEIWRELFSPLHALNFGIGGDGTQHVLWRLENGELEHIRPKIVVVWVGTNNHGHTAEQVTGGIKAIVQLVNERQPQARVVVLGLLPRGQHPNPLREKNRQVNELVRAALAGHPRAHFLDADPGFVHSDGTISHHDMYDYLHLSRLGYTPVCRALHSLLLRLLAQDQGQGAPLLEPAP [PAFAH1B3] ?
[reply] -0.0232

Continuing:
[ask] Entry MAAVSVYAPPVGGFSFDNCRRNAVLEADFAKRGYKLPKVRKTGTTIAGVVYKDGIVLGADTRATEGMVVADKNCSKIHFISPNIYCCGAGTAADTDMTTQLISSNLELHSLSTGRLPRVVTANRMLKQMLFRYQGYIGAALVLGGVDVTGPHLYSIYPHGSTDKLPYVTMGSGSLAAMAVFEDKFRPDMEEEEAKNLVSEAIAAGIFNDLGSGSNIDLCVISKNKLDFLRPYTVPNKKGTRLGRYRCEKGTTAVLTEKITPLEIEVLEETVQTMDTS [PSMB7] : reported solubility change mitosis (log2) = ?
[reply] -0.192

[ask] // next record MAAAAPGNGRASAPRLLLLFLVPLLWAPAAVRAGPDEDLSHRNKEPPAPAQQLQPQPVAVQGPEPARVEKIFTPAAPVHTNKEDPATQTNLGFIHAFVAAISVIIVSELGDKTFFIAAIMAMRYNRLTVLAGAMLALGLMTCLSVLFGYATTVIPRVYTYYVSTVLFAIFGIRMLREGLKMSPDEGQEELEEVQAELKKKDEEFQRTKLLNGPGDVETGTSITVPQKKWLHFISPIFVQALTLTFLAEWGDRSQLTTIVLAAREDPYGVAVGGTVGHCLCTGLAVIGGRMIAQKISVRTVTIIGGIVFLAFAFSALFISPDSGF [TMEM165]
[reply] -0.178
